Hey, just so you know, these numbers are from the supplement of paper PMC12764529.

Assay: folding stability dG unfold from chymotrypsin proteolysis; higher = more stable
So basically: folding stability dG unfold at 0.7 kcal/mol or higher? That is criterion met. Lower than 0.7 kcal/mol? That is criterion not met.

sequence_content="SAGGSAGGMIKYSEEAPDPSYRTEVEVTPVPGKVAIKTTTYRNENGVWTAEESTSVVSPEALLSSAGGSAGG [r6_778_JUSTAS]" answer_label="criterion not met"
sequence_content="SAGGSMSTTLPDGGKVTVYSDPNKPLTLVEVELPDRRLVVLRPVSAPEDGTIVAPVEVRPLEEVEEASAGGS [r16_85_JUSTAS]" answer_label="criterion not met"
sequence_content="SAKFRPVEIPFEIKLEEKDPEDGKKEEREFDIKVKIMVFPDNGMVFISIEFIELGRPITIMLPPGAPIISAG [r14_587_TrROS]" answer_label="criterion met"
sequence_content="SAGGSAGGSAKMIFVKNEDGTITMFTLNEDGYLTVTTVTLDKKTKKMTVETKTIKLTDPELLSAGGSAGGSA [r18_503_TrROS_Hall]" answer_label="criterion met"
sequence_content="SAGGSAGGSPRVLEIRRYPLPDGGYLLEVRFEKETLFIPVPENVPPHSLEEIEIPLLLGEKPESAGGSAGGS [r12_673_TrMRF]" answer_label="criterion met"

Data request: Hello, I need to know if SAGMARIIPNPPVIEVVRKDGSKLVIPPEEIEELRAALEAKGGPYTPEEIAEAIRKLFPDYEVSIVPASAGG [r19_46_TrMRF] has measured folding stability dG unfold not below 0.7 kcal/mol. Thanks!
Data returned: criterion not met
